experiment_summary: recombinant UMI read abundance after kanamycin selection (control-corrected) (log10(CPM+1)); higher = more efficient recombination; extreme values may be limits of the assay; sequences stand for … in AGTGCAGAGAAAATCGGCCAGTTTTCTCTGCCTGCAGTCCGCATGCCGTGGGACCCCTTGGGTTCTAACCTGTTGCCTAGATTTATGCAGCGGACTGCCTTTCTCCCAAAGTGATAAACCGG…AGGTTGGTTTCACT; site = the 11-nt donor;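 further: IS621 bridge recombinase in Escherichia coli cells against a fixed T5 target plasmid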
Label true when recombinant UMI read abundance (log10) is at or above 0.02; anything below gets false.

Threshold query (recombinant UMI read abundance (log10) >= 0.02) on GTAGGAACATGGACCGGTTTTCCCGGTAATCCGTATTTGAC (site GTAGGTACTGT)
true

Given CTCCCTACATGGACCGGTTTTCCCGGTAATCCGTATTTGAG (site CACCCTACTCT) , state whether its recombinant UMI read abundance (log10) is at least 0.02.
true

Others:
Given the entry GTCCAAGCATGGACCGGTTTTCCCGGTAATCCGTATTTGAG (site CTCCAAGCTCT) , answer whether its recombinant UMI read abundance (log10) meets or surpasses 0.02.
false

# check: recombinant UMI read abundance (log10) of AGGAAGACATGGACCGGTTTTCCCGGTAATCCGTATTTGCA (site AGGACGGCTTG) is greater than or equal to 0.02
false

Reported recombinant UMI read abundance (log10) reaches at least 0.02 for TGTTTGGCATGGACCGGTTTTCCCGGTAATCCGTATTTGTG (site TTTTTGGCTCA) ?
false

Form field: recombinant UMI read abundance (log10) at least 0.02? Entry: GGGGTACCATGGACCGGTTTTCCCGGTAATCCGTATTTGCA (site GGGGAACCTTG)
false

Record TAGAATGCATGGACCGGTTTTCCCGGTAATCCGTATTTGCA (site TAGAATACTTG) ; criterion: recombinant UMI read abundance (log10) no lower than 0.02. Met?
true

Identify whether the reported recombinant UMI read abundance (log10) of the following sequence is 0.02 or greater: CACATATCATGGACCGGTTTTCCCGGTAATCCGTATTTGTC (site CGCATATCTGA)
true

Form field: recombinant UMI read abundance (log10) at least 0.02? Entry: CTGTCAGCATGGACCGGTTTTCCCGGTAATCCGTATTTGGG (site CTGTCAGCTCC)
false

Quick check, recombinant UMI read abundance (log10) >= 0.02? TGATCCCCATGGACCGGTTTTCCCGGTAATCCGTATTTGTA (site TGCTCCCCTTA)
true

Would you say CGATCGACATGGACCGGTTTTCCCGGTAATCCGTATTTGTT (site CGATCGACTCA) shows recombinant UMI read abundance (log10) at minimum 0.02?
false

Test whether the sequence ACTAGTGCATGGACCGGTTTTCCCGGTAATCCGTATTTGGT (site ACTAGCGCTAC) records recombinant UMI read abundance (log10) of 0.02 or higher.
false

# check: recombinant UMI read abundance (log10) of GCGATAACATGGACCGGTTTTCCCGGTAATCCGTATTTGCT (site GCGAGAACTAG) is greater than or equal to 0.02
false

Check if recombinant UMI read abundance (log10) >= 0.02 (inclusive). Item: AACCGGCCATGGACCGGTTTTCCCGGTAATCCGTATTTGAT (site AACCGACCTAT)
false
